Values compiled from ChEMBL document CHEMBL3097996.

molecular target: DNA topoisomerase 1 (Homo sapiens); assay: Inhibition of topoisomerase 1 (unknown origin)-mediated relaxation of supercoiled plasmid DNA assessed as intensity of supercoiled DNA after 30 mins by agarose gel electrophoresis relative to camptothecin
Criterion: fold change (FC) strictly less than 0.8. Met: Satisfied. Not met: Not satisfied.

- CC1(C)CC[C@]2(C(=O)NCc3ccccc3)CC[C@]3(C)C(=CC[C@@H]4[C@@]5(C)CC[C@H](OC(=O)NCc6ccccc6)C(C)(C)[C@@H]5CC[C@]43C)[C@@H]2C1: Not satisfied

Is it true that fold change (FC) reported for "CC1(C)CC[C@]2(C(=O)O)CC[C@]3(C)C(=CC[C@@H]4[C@@]5(C)CC[C@H](OC(=O)NCc6ccccc6)C(C)(C)[C@@H]5CC[C@]43C)[C@@H]2C1" is less than 0.8?
Not satisfied

Would you kindly verify if fold change (FC) of "CC1(C)CC[C@]2(C(=O)Nc3cccc4ccccc34)CC[C@]3(C)C(=CC[C@@H]4[C@@]5(C)CC[C@H](OC(=O)Nc6cccc7ccccc67)C(C)(C)[C@@H]5CC[C@]43C)[C@@H]2C1" is strictly less than 0.8?
Not satisfied

Quick check: fold change (FC) of "CC1(C)CC[C@]2(C(=O)NCc3ccccc3)CC[C@]3(C)C(=CC[C@@H]4[C@@]5(C)CC[C@H](O)C(C)(C)[C@@H]5CC[C@]43C)[C@@H]2C1" under 0.8?
Not satisfied

Is it true that fold change (FC) reported for "C=CCNC(=O)O[C@H]1CC[C@]2(C)[C@H]3CC=C4[C@@H]5CC(C)(C)CC[C@]5(C(=O)O)CC[C@@]4(C)[C@]3(C)CC[C@H]2C1(C)C" is less than 0.8?
Not satisfied

Find out if reported fold change (FC) for "CC1(C)CC[C@]2(C(=O)NS(=O)(=O)c3ccccc3)CC[C@]3(C)C(=CC[C@@H]4[C@@]5(C)CC[C@H](OC(=O)NS(=O)(=O)c6ccccc6)C(C)(C)[C@@H]5CC[C@]43C)[C@@H]2C1" is less than 0.8
Not satisfied

====

biological target: DNA topoisomerase 2-alpha (Homo sapiens) (UniProt P11388); assay: Inhibition of topoisomerase 2 (unknown origin)-mediated kinetoplast DNA decatenation assessed as concentration of the compound exhibiting activity of 100 uM etoposide after 30 mins by agarose gel electrophoresis
Sequence (P11388 whole entry): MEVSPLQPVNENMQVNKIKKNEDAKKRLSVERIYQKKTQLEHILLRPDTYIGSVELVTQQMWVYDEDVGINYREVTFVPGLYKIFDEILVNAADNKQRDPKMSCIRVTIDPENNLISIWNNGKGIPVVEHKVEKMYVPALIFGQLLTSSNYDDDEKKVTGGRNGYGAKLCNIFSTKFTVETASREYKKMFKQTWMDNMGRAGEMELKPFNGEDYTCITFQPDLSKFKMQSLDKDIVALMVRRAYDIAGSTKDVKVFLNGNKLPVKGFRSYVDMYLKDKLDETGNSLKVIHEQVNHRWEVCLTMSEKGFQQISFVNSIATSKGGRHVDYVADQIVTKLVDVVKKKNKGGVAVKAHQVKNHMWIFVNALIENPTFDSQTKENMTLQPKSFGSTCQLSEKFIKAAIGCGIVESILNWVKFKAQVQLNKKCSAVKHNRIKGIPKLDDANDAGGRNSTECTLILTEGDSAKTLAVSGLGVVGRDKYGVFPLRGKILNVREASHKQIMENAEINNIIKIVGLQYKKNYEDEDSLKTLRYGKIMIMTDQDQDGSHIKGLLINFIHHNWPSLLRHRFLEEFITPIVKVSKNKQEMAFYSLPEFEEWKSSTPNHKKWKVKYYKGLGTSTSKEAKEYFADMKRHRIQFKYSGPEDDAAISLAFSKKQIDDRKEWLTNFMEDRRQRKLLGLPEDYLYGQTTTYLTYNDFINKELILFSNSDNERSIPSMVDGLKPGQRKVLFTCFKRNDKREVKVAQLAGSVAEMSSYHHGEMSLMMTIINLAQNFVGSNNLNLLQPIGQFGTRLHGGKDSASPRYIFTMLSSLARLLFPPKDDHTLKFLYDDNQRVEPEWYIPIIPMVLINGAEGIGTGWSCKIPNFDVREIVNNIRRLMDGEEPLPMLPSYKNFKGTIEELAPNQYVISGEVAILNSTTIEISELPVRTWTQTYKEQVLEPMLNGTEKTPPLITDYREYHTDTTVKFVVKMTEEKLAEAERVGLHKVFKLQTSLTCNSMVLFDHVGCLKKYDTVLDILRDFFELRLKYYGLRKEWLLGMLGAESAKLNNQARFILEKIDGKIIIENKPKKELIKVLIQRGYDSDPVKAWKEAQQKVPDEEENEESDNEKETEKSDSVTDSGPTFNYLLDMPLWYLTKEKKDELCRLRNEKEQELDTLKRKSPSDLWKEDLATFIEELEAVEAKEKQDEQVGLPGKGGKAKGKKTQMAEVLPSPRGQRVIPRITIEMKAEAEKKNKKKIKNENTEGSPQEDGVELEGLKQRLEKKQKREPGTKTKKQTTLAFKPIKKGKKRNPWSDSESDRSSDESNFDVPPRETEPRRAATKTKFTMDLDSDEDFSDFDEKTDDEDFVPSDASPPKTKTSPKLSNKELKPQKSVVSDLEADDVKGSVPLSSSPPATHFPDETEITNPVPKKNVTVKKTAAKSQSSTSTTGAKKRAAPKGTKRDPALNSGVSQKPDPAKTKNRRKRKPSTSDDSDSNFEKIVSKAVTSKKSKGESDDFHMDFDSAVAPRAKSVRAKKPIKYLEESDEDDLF
measurement_label: Activity (µM)
The reply should contain only the number, in µM.

- CC1(C)CC[C@]2(C(=O)NCc3ccccc3)CC[C@]3(C)C(=CC[C@@H]4[C@@]5(C)CC[C@H](OC(=O)NCc6ccccc6)C(C)(C)[C@@H]5CC[C@]43C)[C@@H]2C1: 57
- CC1(C)CC[C@]2(C(=O)O)CC[C@]3(C)C(=CC[C@@H]4[C@@]5(C)CC[C@H](O)C(C)(C)[C@@H]5CC[C@]43C)[C@@H]2C1: 276

# query: Activity | item "C=CCNC(=O)O[C@H]1CC[C@]2(C)[C@H]3CC=C4[C@@H]5CC(C)(C)CC[C@]5(C(=O)O)CC[C@@]4(C)[C@]3(C)CC[C@H]2C1(C)C" | system: DNA topoisomerase 2-alpha (Homo sapiens) (UniProt P11388)
53

API: value(readout=Activity, system=DNA topoisomerase 2-alpha (Homo sapiens) (UniProt P11388)) for record "CC1(C)CC[C@]2(C(=O)O)CC[C@]3(C)C(=CC[C@@H]4[C@@]5(C)CC[C@H](OC(=O)Nc6ccc(-c7ccccc7)cc6)C(C)(C)[C@@H]5CC[C@]43C)[C@@H]2C1"
46.5

Quick check: Activity on DNA topoisomerase 2-alpha (Homo sapiens) (UniProt P11388), item "CC1(C)CC[C@]2(C(=O)O)CC[C@]3(C)C(=CC[C@@H]4[C@@]5(C)CC[C@H](OC(=O)NCc6ccccc6)C(C)(C)[C@@H]5CC[C@]43C)[C@@H]2C1" ?
68
